Reference source: patent US20140072563A1

# TARGET: T1, ErbB3-mFc (human)
# T1 construct: Dimeric soluble ErbB3; also called hErbB3.mFc
# T1 chain: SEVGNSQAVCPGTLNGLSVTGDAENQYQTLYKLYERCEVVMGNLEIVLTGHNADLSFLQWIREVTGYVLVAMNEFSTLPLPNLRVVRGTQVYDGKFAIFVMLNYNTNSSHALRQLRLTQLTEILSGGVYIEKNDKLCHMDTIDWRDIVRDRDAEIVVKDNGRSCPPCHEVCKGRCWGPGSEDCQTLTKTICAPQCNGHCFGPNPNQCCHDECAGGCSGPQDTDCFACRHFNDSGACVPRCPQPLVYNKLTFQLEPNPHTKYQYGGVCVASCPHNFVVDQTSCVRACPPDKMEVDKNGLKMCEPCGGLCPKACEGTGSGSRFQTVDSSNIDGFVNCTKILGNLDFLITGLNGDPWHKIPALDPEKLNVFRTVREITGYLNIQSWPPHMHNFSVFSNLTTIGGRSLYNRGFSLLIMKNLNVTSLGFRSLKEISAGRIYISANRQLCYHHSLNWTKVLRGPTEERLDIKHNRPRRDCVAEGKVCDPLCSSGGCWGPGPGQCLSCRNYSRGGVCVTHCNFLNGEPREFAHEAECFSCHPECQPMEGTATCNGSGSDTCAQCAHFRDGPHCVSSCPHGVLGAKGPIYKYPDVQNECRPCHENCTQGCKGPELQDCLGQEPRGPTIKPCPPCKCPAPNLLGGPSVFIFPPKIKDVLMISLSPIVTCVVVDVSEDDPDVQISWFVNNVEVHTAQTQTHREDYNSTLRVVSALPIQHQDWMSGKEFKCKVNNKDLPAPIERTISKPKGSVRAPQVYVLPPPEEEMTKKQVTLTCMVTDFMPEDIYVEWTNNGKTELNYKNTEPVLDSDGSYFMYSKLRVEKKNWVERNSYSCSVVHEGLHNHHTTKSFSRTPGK
# METHOD_SUMMARY: blocking ELISA: antibody (0-50 nM) + 50 pM ErbB3-mFc, binding to coated neuregulin1b
# From the text: To further characterize anti-hErbB3 mAbs of the present invention, their ability to block ligand binding was examined via ELISA. […] Plates were washed and non-sequestered (plate bound) ErbB3 was detected with an anti-Fc poly conjugated with horseradish peroxidase (HRP). Plates were developed with TMB (3,3′,5,5′-tetramethylbenzidine) and neutralized with sulfuric acid before reading absorbance at 450 nm on a Victor X5 plate reader. […]
# Maximal Blocking (%) annotations
Value expressed in %; do not type the unit.

binder="H4H2111P (antibody, human IgG4, V domains shown, Human IgG4 Fc (prefix H4H)) VH: QVQLVESGGGVVQPGRSLRLSCAASGFTFNNYGMHWVRQAPGKGLAWVAVMWYSESHKYYADSVKGRFTISRDNSKNTLYLEMNSLRVEDTAIYYCARDLGDPDAFDIWGQGTMVTVSS VL: DIQLTQSPSFLSASVGDRVTITCWASQGISSYLAWYQQKPGKAPKLLIYGASTLQSGVPSRFSGSGSGTEFTLTISSLQPEDFATYYCQQLNSYPLTFGGGTKVEIKR" experimental_endpoint="Maximal Blocking (%)" quantitative_readout=92
binder="H4H2108P (antibody, human IgG4, V domains shown, Human IgG4 Fc (prefix H4H)) VH: EVQLLESGGDLVQPGGSLRLSCATSGFSFSSDAMNWVRQAPGKGLEWVSGISGSGGNTYYADSVKGRFTISRDISKSTLSLQMNSLRAEDTAVYYCAKEGTNMVRGVVMEDNGMDVWGQGTTVTVSA VL: DIQMTQSPSSVSASVGDRVTITCRASQGISDYLAWYQQKPGKAPKLLIYAASSLQSGVPSRFSGRGSGTDFTLTISTLQPEDFATYYCQQANSFPLTFGGGTKVDIKR" experimental_endpoint="Maximal Blocking (%)" quantitative_readout=91

# context switch: different binder, same Maximal Blocking (%)
Ask: Maximal Blocking (%) lookup needed for H4H2102P (antibody, human IgG4, V domains shown, Human IgG4 Fc (prefix H4H)) VH: EVQLVESGGGLVQPGGSLRLSCAASGFTFSNYDIHWVRQATGKGLEWVSAIGPAGDTYYSDSVKGRFTISREDAKNSLYLQMSSLRAGDTAVYYCASEGIAVRPDDYYGMDVWGQGTTVTVSA VL: DIQLTQSPSFLSASVGDRVTITCWASQDITSYLAWYQKKPGKAPKLLIYAASTLQSGVPSRFSGSGSGTEFTLTISSLQPEDFAAYYCQQLNSYPLTFGGGTKVDIKR , thanks.
Reply: 90
